Data credit: patent US5340802A

Tested system: Type-B CCK receptors (Cavia porcellus)
Construct: Cortical and pancreatic membranes were prepared as described; from tissue; host or cells: guinea pig cerebral cortex membranes
Sequence (H0VZC5 1-426): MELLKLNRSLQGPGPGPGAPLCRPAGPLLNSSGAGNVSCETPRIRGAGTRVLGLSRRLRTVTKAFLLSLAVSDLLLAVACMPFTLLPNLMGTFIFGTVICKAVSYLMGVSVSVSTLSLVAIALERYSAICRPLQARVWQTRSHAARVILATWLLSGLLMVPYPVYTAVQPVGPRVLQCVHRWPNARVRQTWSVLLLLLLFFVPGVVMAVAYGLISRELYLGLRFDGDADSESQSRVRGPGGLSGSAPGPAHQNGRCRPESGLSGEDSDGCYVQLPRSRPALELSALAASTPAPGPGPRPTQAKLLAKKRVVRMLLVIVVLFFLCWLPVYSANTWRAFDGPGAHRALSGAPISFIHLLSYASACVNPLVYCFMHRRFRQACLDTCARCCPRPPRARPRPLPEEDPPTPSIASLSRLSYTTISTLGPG
Protocol summary: Radioligand binding ([125I]BH-CCK-8) in guinea pig cerebral cortical membrane preparations
Applied conditions: cortical membranes, 30° C., 150 minutes, read-out: IC50 (nM) cortex (Type B)
Reported endpoint: IC50 (nM)
Answer in nM, number only, no unit symbol.

Compound	Reported endpoint	Result value
CC(C)C[C@H](NC(=O)[C@@H]1Cc2c[nH]c3cccc(c23)CC(=O)N1)C(=O)N[C@@H](CC(=O)O)C(=O)N/C(=C\c1ccccc1)C(N)=O [Example 14, Ctp-Leu-Asp-(dehydro)Phe-NH2]	IC50	16

INPUT: # return recorded IC50 for input NC(=O)[C@H](Cc1ccccc1)NC(=O)[C@H](CC(=O)O)NC(=O)[C@@H]1CCCCN1C(=O)[C@@H]1Cc2c[nH]c3cccc(c23)CC(=O)N1 [Example 43, Ctp-Pip-Asp-Phe-NH2]
OUTPUT: 29.9

INPUT: # return recorded IC50 for input NC(=O)[C@H](Cc1ccccc1)NC(=O)[C@H](CC(=O)O)NC(=O)[C@@H]1CSCCN1C(=O)[C@@H]1Cc2c[nH]c3cccc(c23)CC(=O)N1 [Example 42]
OUTPUT: 8.4

INPUT: # return recorded IC50 for input CCC[C@@H]1CCN(C(=O)[C@@H]2Cc3c[nH]c4cccc(c34)CC(=O)N2)[C@@H]1C(=O)N[C@@H](CC(=O)O)C(=O)N[C@@H](Cc1ccccc1)C(N)=O [Example 35, Ctp-Cpp-Asp-Phe-NH2]
OUTPUT: 18

----------
Each entry below lists one item and its recorded IC50 value.
Tested system: Type-A CCK receptors (Cavia porcellus, UniProt Q63931)
Construct: Cortical and pancreatic membranes were prepared as described; from tissue; host or cells: guinea pig pancreas membranes
Sequence (Q63931 whole entry): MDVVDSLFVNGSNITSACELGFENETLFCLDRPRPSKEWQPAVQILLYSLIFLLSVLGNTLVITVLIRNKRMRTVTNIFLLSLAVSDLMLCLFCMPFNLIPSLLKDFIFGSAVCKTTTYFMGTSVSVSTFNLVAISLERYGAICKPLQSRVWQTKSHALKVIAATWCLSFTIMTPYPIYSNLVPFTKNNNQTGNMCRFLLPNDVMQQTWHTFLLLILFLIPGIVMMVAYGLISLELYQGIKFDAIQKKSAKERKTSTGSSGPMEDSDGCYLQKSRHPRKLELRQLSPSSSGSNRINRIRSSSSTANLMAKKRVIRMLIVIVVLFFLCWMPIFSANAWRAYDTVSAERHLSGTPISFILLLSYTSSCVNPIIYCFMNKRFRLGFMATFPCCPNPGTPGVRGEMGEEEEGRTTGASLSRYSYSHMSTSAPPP
Protocol summary: Radioligand binding ([125I]BH-CCK-8) in guinea pig pancreatic membrane preparations
Applied conditions: pancreatic membranes, 37° C., 150 minutes, read-out: IC50 (nM) Pancreas (Type A)
Answer in nM, number only, no unit symbol.

Here's what some known entries look like.
Compound	Tested system	IC50 (nM)
NC(=O)[C@H](Cc1ccccc1)NC(=O)[C@H](CC(=O)O)NC(=O)[C@@H]1CCCCN1C(=O)[C@@H]1Cc2c[nH]c3cccc(c23)CC(=O)N1 [Example 43, Ctp-Pip-Asp-Phe-NH2]	Type-A CCK receptors (Cavia porcellus, UniProt Q63931)	11500
NC(=O)[C@H](Cc1ccccc1)NC(=O)[C@H](CC(=O)O)NC(=O)[C@@H]1CSCCN1C(=O)[C@@H]1Cc2c[nH]c3cccc(c23)CC(=O)N1 [Example 42]	Type-A CCK receptors (Cavia porcellus, UniProt Q63931)	1300

Please find the next compound below.
INPUT: Name the value of IC50 reported for CCC[C@@H]1CCN(C(=O)[C@@H]2Cc3c[nH]c4cccc(c34)CC(=O)N2)[C@@H]1C(=O)N[C@@H](CC(=O)O)C(=O)N[C@@H](Cc1ccccc1)C(N)=O [Example 35, Ctp-Cpp-Asp-Phe-NH2] when tested on Type-A CCK receptors (Cavia porcellus, UniProt Q63931).
OUTPUT: 4770
